We begin with a simple list: items and their reported pEC50.
Tested on: P. falciparum 3D7
MEASUREMENT DESCRIPTION: DAPI stain fluorescent high content imaging assay, P. falciparum 3D7 (confirmatory screen, Avery)
COND: Plasmodium falciparum, 3D7, read-out: EC50_nM
Worth noting: pEC50 values are minus log10 of concentrations stated in mol/L.

Below: 2 molecules and their reported pEC50.
| MOLECULE | MEASURED RESULT |
| --- | --- |
| O=c1cc(NC2CCN(CCCc3ccccc3)CC2)c2cc(Cl)ccc2o1 [MMV665786] | 6.07 |
| c1ccc2c(NCCCCCCNc3c4c(nc5ccccc35)CCCC4)c3c(nc2c1)CCCC3 [MMV019555] | 6.42 |

Query block: Entry COc1cccc(Nc2nc(N)c3ccccc3n2)c1 [MMV019199] needs its pEC50 filled in; supply it.
Result block: 5.40
